# maps each entry to its inhibition
Tested on: transactivating tegument protein VP16 (Human herpesvirus 1)
ASSAY EXPLANATION: VP16 transactivation reporter inhibitors, counter-screen for SRC2 inhibitor project, cell-based, luminescence, single concentration (AID 652007)
APPLIED CONDITIONS: cell-based VP16 transactivation luciferase reporter, at 8.9 µM, stronger effect = higher value
Active and inactive are the calls of the source. No stated cut-off is given here; in the data, active means inhibition above about 36%; inactive means the rest.
READOUT KIND: inhibition

- COMPOUND: "COc1ccc(/C=C2\\SC(=O)N(CCCC(=O)Nc3ccc(C(=O)O)cc3)C2=O)cc1"
  ENDPOINT RESULT: "88.3% (active)"
- COMPOUND: "CC(C)(C)c1ccc(C(=O)O/N=C(\\N)c2ccccc2)cc1"
  ENDPOINT RESULT: "76.9% (active)"
- COMPOUND: "CC(=O)Nc1cccc(-c2cc(NC(C)=O)c3ncc(-c4ccccc4)n3c2)c1"
  ENDPOINT RESULT: "-11.4% (inactive)"
- COMPOUND: "CC(C)C[C@H]1CN(CCCC[C@H]2CNC(=O)C(=O)N2CCc2ccccc2)C(=O)C(=O)N1CCC1CCCCC1"
  ENDPOINT RESULT: "10.7% (inactive)"
- COMPOUND: "C=C(C(=O)c1ccccc1)C(C)CC(=O)c1ccccc1 (stereo not given)"
  ENDPOINT RESULT: "11.5% (inactive)"

====

# maps each entry to its inhibition
ASSAY EXPLANATION: VP16 transactivation reporter inhibitors, counter-screen for LRH-1 inverse agonist project, cell-based, luminescence, high throughput (AID 651615)
APPLIED CONDITIONS: Gal4-VP16 luciferase reporter cells, at 3.6 µM, stronger effect = higher value

- MOLECULE: "Cc1cc2[nH]c3c(c[n+](C)c4ccccc34)c2cc1C"
  inhibition, %: 84.2
- MOLECULE: "COc1ccc(C2=Nn3c(nnc3-c3ccccc3OC)SC2)cc1OC"
  inhibition, %: 11.1
- MOLECULE: "O=C(CCl)N(c1ccccc1)c1c[nH]c2ccccc12"
  inhibition, %: 18.8
- MOLECULE: "O=C1/C(=C\\c2ccc(Cl)c(Cl)c2)CN(C(=O)CCN2CCOCC2)C/C1=C/c1ccc(Cl)c(Cl)c1"
  inhibition, %: 79
- MOLECULE: "Cc1cc(OCC(=O)Nc2nccs2)c2c(C)cc(=O)oc2c1"
  inhibition, %: -19.8
- MOLECULE: "Cc1nnc(SCC(=O)Nc2ccc(N3CCN(S(C)(=O)=O)CC3)cc2)o1"
  inhibition, %: -9.83
- MOLECULE: "COc1ccc(NS(=O)(=O)c2ccc(-c3coc(C)n3)cc2)cc1OC"
  inhibition, %: 51.4
- MOLECULE: "COC(=O)Cc1sc(-c2ccccn2)nc1-c1ccccc1"
  inhibition, %: -7.62
- MOLECULE: "CC1CCc2nc(NC(=O)CSc3nc4ccccc4o3)sc2C1 (stereo unspecified)"
  inhibition, %: -33.5
- MOLECULE: "CC(C)(C)c1ccc(C(=O)Nc2ccc(CC(=O)O)cc2)o1"
  inhibition, %: 37.7
- MOLECULE: "CCn1c(C)cc(C(=O)CN2C(=O)c3ccccc3S2(=O)=O)c1C"
  inhibition, %: 11
- MOLECULE: "O=C(CSc1nnnn1C1CCCC1)Nc1ccc2c(c1)OCCO2"
  inhibition, %: -30.9
- MOLECULE: "CCc1cccc2sc(N3CCN(C(=O)c4ccc([N+](=O)[O-])o4)CC3)nc12"
  inhibition, %: 17.4
- MOLECULE: "COc1ccc(Oc2ccccc2/C=N/O)cc1"
  inhibition, %: 42.5
- MOLECULE: "COc1ccc(OC)c(Cc2cnc3nc(N)nc(N)c3c2C)c1"
  inhibition, %: 43.9
- MOLECULE: "C#Cc1ccc(NC(=O)C2(C)CCN2C(=O)Cc2ccc(C(C)(C)C)cc2)cc1 (stereo unspecified)"
  inhibition, %: 43.9

====

# maps each entry to its inhibition
Tested on: transactivating tegument protein VP16 (Human herpesvirus 1), Gal4-VP16 luciferase reporter
ASSAY EXPLANATION: VP16 transactivation inhibitors, counter-screen for SRC3 inhibitor project, cell-based, luminescence, high throughput (AID 588794)
APPLIED CONDITIONS: mammalian cells, VP16-driven luciferase reporter luminescence; at 3.6 µM; stronger effect = higher value
READOUT KIND: inhibition (%)

- MOLECULAR STRING: "CCOC(=O)/C(C#N)=C/c1cc(C)n(-c2ccccc2)c1C"
  UNIT ABBREVIATION: "%"
  ENDPOINT RESULT: 18.2
- MOLECULAR STRING: "CC(C)(C)c1ccc(Oc2ccc(NC(=O)c3ccccc3C(=O)O)cn2)cc1"
  UNIT ABBREVIATION: "%"
  ENDPOINT RESULT: 10.3
- MOLECULAR STRING: "c1ccc(-c2nn(-c3ccccc3)[n+](-c3ccccc3)n2)cc1"
  UNIT ABBREVIATION: "%"
  ENDPOINT RESULT: 14.7
- MOLECULAR STRING: "COC(=O)c1ccccc1-c1ccc(C(c2c(C)[nH][nH]c2=O)c2c(C)[nH][nH]c2=O)o1"
  UNIT ABBREVIATION: "%"
  ENDPOINT RESULT: -7.34

====

TARGET ENTITY: Nuclear receptor subfamily 5 group A member 2 (Homo sapiens)
ASSAY EXPLANATION: LRH-1 (NR5A2) inverse agonists, retest, confirmation, cell-based, luminescence (AID 651613);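 further: HEK293T cells co-transfected with LRH-1 and StAR promoter luciferase reporter; 0% = vehicle wells and 100% = parental cells lacking receptor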
APPLIED CONDITIONS: cell-based LRH-1 luciferase reporter, inverse agonism; at 3.6 µM
Activity calls are given as the source filed them. Rule as the data show it: active = inhibition above about 42%; inactive = the rest.
Outcome codes: TRUE (active), FALSE (inactive)

- COMPOUND: "CCCCCCCCCCCCCCCCn1cc[n+](C)c1"
  CLASS LABEL: "TRUE"
- COMPOUND: "O=C(Nc1ccc(S(=O)(=O)N2CCCC2)cc1)c1ccc([N+](=O)[O-])o1"
  CLASS LABEL: "TRUE"
- COMPOUND: "CC(C)(C)c1ccc(-c2cn(-c3ccc(Br)cc3)c3[n+]2CCCS3)cc1"
  CLASS LABEL: "TRUE"
- COMPOUND: "Cc1ccccc1CN1CC2=C(CCN(Cc3ccccc3)C2=O)N2CCN=C12"
  CLASS LABEL: "TRUE"
- COMPOUND: "CCN(CC)S(=O)(=O)c1cccc(NC(=O)CNc2cccc(S(=O)(=O)N3CCCC3)c2)c1"
  CLASS LABEL: "TRUE"
- COMPOUND: "O=C(COC(=O)c1ccccn1)Nc1cccnc1Cl"
  CLASS LABEL: "FALSE"
- COMPOUND: "Cc1cc(C(=O)CSc2nc3ccccc3[nH]2)c(C)n1CC1CCCO1 (stereo not drawn)"
  CLASS LABEL: "FALSE"
- COMPOUND: "NC(=O)C1CCN(C(=O)COc2ccc3c4c(c(=O)oc3c2)CCC4)CC1"
  CLASS LABEL: "TRUE"
- COMPOUND: "CCCCC(=O)NC(c1ccc(Cl)cc1)c1ccc2cccnc2c1O (stereo not drawn)"
  CLASS LABEL: "TRUE"
- COMPOUND: "COc1ccccc1Cc1c(-c2ccc(OC)c(OC)c2)nc2c3ccccc3ccn12"
  CLASS LABEL: "FALSE"
- COMPOUND: "O=C(COC(=O)C1CCCCC1)NCCc1ccccc1"
  CLASS LABEL: "TRUE"
- COMPOUND: "CC(=O)Nc1cccc(C(=O)OCC(=O)N2CCN(C(=O)COC(=O)c3cccc(NC(C)=O)c3)CC2)c1"
  CLASS LABEL: "TRUE"
- COMPOUND: "COc1ccc(/C=C/c2cc(-c3ccc(C)cc3)o[n+]2C)cc1"
  CLASS LABEL: "TRUE"
- COMPOUND: "COc1ccc(CCNC(=O)c2nnn(-c3ccc4c(c3)OCCO4)c2N)cc1OC"
  CLASS LABEL: "FALSE"
- COMPOUND: "CC(=O)Nc1cc(-c2cccc(F)c2)cn2c(-c3ccc(S(C)(=O)=O)cc3)cnc12"
  CLASS LABEL: "TRUE"
- COMPOUND: "O=C(Nc1ccccn1)c1ccc([N+](=O)[O-])o1"
  CLASS LABEL: "TRUE"
- COMPOUND: "COc1cccc(/C=N/Nc2nc(Nc3ccccc3)nc(-n3nc(C)cc3C)n2)c1O"
  CLASS LABEL: "FALSE"
- COMPOUND: "CCCCCn1c2c(c(=N)c3ccccc31)CCC2"
  CLASS LABEL: "TRUE"

====

Tested on: transactivating tegument protein VP16 (Human herpesvirus 1), Gal4-VP16 luciferase reporter
ASSAY EXPLANATION: VP16 transactivation inhibitors, counter-screen for SRC3 inhibitor project, cell-based, luminescence, high throughput (AID 588794)
APPLIED CONDITIONS: mammalian cells, VP16-driven luciferase reporter luminescence; at 3.6 µM
Calls of active or inactive are those of the source. Rule as the data show it: active = inhibition above about 30%; inactive = the rest.
Outcome codes: active, inactive

- COMPOUND: "C=CS(=O)(=O)N(Cc1ccccc1Br)[C@H](CO)Cc1ccccc1"
  TARGET ENTITY: "transactivating tegument protein VP16 (Human herpesvirus 1), Gal4-VP16 luciferase reporter"
  CLASS LABEL: "inactive"
- COMPOUND: "CCn1nc([N+](=O)[O-])c(C(C#N)c2nc3cc(C(F)(F)F)ccc3s2)c(Cl)c1=O (centres undefined)"
  TARGET ENTITY: "transactivating tegument protein VP16 (Human herpesvirus 1), Gal4-VP16 luciferase reporter"
  CLASS LABEL: "inactive"
- COMPOUND: "Nc1ncnc2c(C3OC(CO)C(O)C3O)scc12 (centres undefined)"
  TARGET ENTITY: "transactivating tegument protein VP16 (Human herpesvirus 1), Gal4-VP16 luciferase reporter"
  CLASS LABEL: "active"
- COMPOUND: "Cc1cc(Sc2nnc(N)s2)c2ccccc2n1"
  TARGET ENTITY: "transactivating tegument protein VP16 (Human herpesvirus 1), Gal4-VP16 luciferase reporter"
  CLASS LABEL: "inactive"
